From: patent US20240376185A1

Consider the following binders and their measured absorbance at 450 nm readings.
measured on: tetanus neurotoxin (TeNT), authentic tetanus holotoxin (Clostridium tetani, UniProt P04958 2-1315)
Sequence (P04958 2-457 limits assumed, chain 1 of 2): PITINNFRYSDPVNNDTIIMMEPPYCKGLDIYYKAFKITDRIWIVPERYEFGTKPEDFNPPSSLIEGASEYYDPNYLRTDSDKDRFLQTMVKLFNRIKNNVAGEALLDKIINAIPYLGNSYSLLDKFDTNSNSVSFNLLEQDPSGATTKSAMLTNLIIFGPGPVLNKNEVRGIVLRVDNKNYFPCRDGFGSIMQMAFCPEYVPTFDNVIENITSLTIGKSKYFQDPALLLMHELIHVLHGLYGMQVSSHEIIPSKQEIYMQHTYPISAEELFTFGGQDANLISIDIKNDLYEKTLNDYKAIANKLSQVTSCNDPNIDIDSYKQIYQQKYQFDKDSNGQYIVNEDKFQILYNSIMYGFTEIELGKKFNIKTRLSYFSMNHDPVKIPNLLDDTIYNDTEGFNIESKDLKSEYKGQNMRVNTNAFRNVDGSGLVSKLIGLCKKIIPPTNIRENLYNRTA
Sequence (P04958 458-1315 limits assumed, chain 2 of 2): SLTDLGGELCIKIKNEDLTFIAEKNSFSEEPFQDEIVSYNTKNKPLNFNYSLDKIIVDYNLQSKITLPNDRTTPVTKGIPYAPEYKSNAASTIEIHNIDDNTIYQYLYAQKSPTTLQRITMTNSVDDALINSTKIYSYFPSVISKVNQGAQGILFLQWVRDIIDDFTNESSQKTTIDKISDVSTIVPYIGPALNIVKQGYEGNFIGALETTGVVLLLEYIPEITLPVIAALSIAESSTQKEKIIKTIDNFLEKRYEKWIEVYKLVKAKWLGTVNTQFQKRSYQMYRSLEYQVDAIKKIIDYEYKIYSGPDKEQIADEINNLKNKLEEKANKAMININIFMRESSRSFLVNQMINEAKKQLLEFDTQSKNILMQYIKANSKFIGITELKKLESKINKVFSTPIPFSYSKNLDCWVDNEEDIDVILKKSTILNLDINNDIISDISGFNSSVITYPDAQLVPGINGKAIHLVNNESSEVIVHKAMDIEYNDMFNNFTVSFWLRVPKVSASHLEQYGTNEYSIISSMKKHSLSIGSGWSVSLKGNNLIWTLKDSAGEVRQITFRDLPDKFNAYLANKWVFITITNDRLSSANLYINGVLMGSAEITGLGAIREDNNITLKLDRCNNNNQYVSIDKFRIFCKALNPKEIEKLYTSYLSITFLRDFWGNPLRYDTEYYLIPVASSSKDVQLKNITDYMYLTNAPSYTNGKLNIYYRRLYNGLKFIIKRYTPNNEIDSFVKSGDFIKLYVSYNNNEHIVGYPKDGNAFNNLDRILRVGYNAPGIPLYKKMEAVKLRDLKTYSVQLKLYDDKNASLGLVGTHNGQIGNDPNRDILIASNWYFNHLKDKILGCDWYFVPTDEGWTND
assay explanation: ELISA, directly coated TeNT, E. coli supernatant; note: test concentration or dose not given here
// units = A450; emit number, no label

>>> observed_value("SVT22 (VHH) VHH: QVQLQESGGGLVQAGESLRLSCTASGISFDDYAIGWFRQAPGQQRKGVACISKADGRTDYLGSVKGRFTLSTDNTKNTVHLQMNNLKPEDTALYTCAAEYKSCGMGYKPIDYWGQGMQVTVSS")
1.08
>>> observed_value("SVT31 (VHH) VHH: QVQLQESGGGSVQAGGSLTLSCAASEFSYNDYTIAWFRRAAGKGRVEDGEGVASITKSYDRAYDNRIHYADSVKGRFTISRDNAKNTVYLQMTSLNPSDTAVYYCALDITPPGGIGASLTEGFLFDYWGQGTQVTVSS")
1.38
>>> observed_value("SVT34 (VHH) VHH: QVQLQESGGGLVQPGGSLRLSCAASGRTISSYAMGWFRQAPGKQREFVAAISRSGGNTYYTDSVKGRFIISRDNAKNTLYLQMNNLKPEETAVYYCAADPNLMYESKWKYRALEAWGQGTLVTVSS")
1.43
>>> observed_value("SVT16 (VHH) VHH: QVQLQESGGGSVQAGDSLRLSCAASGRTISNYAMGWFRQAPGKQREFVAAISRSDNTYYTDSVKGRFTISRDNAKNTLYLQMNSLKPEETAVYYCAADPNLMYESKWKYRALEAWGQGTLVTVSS")
1.04
>>> observed_value("SVT05 (VHH) VHH: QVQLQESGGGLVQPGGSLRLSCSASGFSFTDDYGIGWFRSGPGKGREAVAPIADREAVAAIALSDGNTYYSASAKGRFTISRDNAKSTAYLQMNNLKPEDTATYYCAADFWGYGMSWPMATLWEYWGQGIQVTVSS")
1.04

Request: Output absorbance at 450 nm of SVT08 (VHH) VHH: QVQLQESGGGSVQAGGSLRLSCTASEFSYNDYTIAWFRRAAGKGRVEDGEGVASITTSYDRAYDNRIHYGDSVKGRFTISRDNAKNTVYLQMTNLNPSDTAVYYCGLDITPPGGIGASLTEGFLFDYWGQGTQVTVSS
Result: 1.07

Request: Output absorbance at 450 nm of SVT20 (VHH) VHH: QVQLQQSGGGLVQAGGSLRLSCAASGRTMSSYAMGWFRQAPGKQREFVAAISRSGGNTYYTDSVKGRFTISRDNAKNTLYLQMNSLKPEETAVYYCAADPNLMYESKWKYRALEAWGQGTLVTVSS
Result: 1.08

Request: Output absorbance at 450 nm of SVT13 (VHH) VHH: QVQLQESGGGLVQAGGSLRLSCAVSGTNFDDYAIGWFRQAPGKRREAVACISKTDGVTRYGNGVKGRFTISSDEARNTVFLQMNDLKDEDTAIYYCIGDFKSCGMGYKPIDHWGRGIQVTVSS
Result: 0.762

Request: Output absorbance at 450 nm of SVT03 (VHH) VHH: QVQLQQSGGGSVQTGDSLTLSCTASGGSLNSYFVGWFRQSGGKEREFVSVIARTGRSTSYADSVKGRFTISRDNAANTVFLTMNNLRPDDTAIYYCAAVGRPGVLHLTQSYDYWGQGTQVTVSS
Result: 0.091

Request: Output absorbance at 450 nm of SVT29 (VHH) VHH: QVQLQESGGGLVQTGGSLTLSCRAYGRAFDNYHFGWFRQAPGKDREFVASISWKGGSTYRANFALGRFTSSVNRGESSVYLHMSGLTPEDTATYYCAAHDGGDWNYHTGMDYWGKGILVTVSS
Result: 1.28

Request: Output absorbance at 450 nm of SVT02 (VHH) VHH: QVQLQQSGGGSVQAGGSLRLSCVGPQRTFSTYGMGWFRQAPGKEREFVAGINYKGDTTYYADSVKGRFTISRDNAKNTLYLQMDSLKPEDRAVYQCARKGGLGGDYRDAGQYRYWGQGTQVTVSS
Result: 0.078

Request: Output absorbance at 450 nm of SVT25 (VHH) VHH: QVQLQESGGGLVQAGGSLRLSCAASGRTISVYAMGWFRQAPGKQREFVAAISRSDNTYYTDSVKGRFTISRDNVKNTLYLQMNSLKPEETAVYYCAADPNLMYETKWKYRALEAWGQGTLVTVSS
Result: 1.14

Request: Output absorbance at 450 nm of SVT06 (VHH) VHH: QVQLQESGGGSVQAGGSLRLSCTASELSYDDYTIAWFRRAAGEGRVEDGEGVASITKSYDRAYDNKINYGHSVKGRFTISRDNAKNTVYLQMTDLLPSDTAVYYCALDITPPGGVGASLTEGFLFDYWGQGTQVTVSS
Result: 1.04

Request: Output absorbance at 450 nm of SVT15 (VHH) VHH: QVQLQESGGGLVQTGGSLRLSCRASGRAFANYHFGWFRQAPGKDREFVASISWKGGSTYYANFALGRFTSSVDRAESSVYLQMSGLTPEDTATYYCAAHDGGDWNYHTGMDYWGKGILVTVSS
Result: 1.03
